Could you please report measured self-cleavage for the items listed next?
B1: HDV Ribozyme (parent)
chain: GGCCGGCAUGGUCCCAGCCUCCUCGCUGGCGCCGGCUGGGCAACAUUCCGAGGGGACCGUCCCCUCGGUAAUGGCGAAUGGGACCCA

Variants of: B1
Experiment: self-cleavage, relative activity (ratio to wild type); higher = more cleavage; co-transcriptional
Give bare numbers.

In the examples that follow, each entry is paired with its recorded self-cleavage.
[
  {
    "variant_string": "C18U G76C",
    "self-cleavage": 0.978
  },
  {
    "variant_string": "G5A A56U",
    "self-cleavage": 0.106
  },
  {
    "variant_string": "G6U U20A",
    "self-cleavage": 0.0978
  },
  {
    "variant_string": "G35C G52C",
    "self-cleavage": 0.128
  }
]

Answer for every listed entry: what is its self-cleavage? The entries follow.
1. C66A C85G
2. G53A G59A
3. U12C A77G
4. A42U G67C
5. U27C A87U
6. G55U G73A

1. 0.918
2. 0.851
3. 0.302
4. 0.415
5. 0.6
6. 0.533

Answer for every listed entry: what is its self-cleavage? The entries follow.
1. C3U A51U
2. C30A U69C
3. A56G A77U
4. G39U C61U

1: 0.992; 2: 0.623; 3: 0.739; 4: 0.58

Answer for every listed entry: what is its self-cleavage? The entries follow.
1. G29A C75A
2. U23G C24U
3. G29C C66G
4. G6C C14U

1: 0.0852; 2: 0.314; 3: 0; 4: 0.453
